Molecular target: HIF-2α HIS TAG-PASB Domain (Homo sapiens, UniProt Q99814)
Sequence (Q99814 whole entry, looked up, the tested form may be a part): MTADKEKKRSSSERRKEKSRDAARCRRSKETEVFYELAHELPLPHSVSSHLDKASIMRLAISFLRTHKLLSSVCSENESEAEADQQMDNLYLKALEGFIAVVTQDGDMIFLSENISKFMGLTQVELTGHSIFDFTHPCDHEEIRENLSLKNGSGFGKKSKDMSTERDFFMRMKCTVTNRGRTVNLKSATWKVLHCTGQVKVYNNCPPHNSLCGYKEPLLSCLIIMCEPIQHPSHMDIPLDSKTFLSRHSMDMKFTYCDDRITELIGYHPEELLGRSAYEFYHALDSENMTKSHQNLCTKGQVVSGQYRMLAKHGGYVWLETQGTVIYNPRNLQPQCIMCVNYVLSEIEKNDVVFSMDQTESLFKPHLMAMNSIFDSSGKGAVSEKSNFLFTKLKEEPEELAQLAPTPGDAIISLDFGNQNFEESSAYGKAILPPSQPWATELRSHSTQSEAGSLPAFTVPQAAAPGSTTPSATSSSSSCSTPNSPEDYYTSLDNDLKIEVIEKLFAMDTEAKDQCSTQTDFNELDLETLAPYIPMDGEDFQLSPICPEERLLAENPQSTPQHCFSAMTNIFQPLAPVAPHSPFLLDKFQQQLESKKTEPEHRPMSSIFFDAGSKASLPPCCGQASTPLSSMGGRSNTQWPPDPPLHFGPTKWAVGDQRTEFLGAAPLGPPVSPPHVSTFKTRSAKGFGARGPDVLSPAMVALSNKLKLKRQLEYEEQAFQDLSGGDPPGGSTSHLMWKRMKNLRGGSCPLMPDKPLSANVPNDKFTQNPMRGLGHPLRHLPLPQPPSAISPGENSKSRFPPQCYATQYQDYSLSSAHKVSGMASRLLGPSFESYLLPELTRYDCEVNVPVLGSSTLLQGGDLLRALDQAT
Assay: biochemical
Assay type: binding
Settings: displacement of Compound 120 probe; mean; read-out: Mean SPA IC50
Source text: The term “scintillation proximity assay” (SPA) refers to a homogenous assay in which light is emitted when a radiolabeled ligand is brought into close proximity to a radiosensitive bead. […] Radiolabeled ligand (e.g., labeled with tritium) that binds to the protein is now in close proximity to the bead, and when the raidolabel (e.g., tritium) decays, the high energy particle hits the bead resulting in the emission of light that is detected by a detector, such as photomultiplier tube or CCD camera. […]
experimental endpoint: IC50 (nM)

(A) Cc1cncc(Oc2ccc3c(c2Br)[C@@H](O)C(F)(F)S3(=O)=O)c1
(B) O=C1c2c(ccc(Oc3cc(F)cc(Cl)c3)c2Br)S(=O)(=O)C1(F)F
(C) O=S1(=O)c2ccc(Oc3cncc(Cl)c3)c(Cl)c2[C@@H](O)C1(F)F
Order the entries above by descending IC50. Order the labels as requested and list them. A, B, C

====

Target: HIF-2α HIS TAG-PASB Domain (Homo sapiens)
Test: biochemical
Format: binding
Settings: displacement of Compound 120 probe; mean; read-out: Mean SPA IC50
From the text: The term “scintillation proximity assay” (SPA) refers to a homogenous assay in which light is emitted when a radiolabeled ligand is brought into close proximity to a radiosensitive bead. […] Radiolabeled ligand (e.g., labeled with tritium) that binds to the protein is now in close proximity to the bead, and when the raidolabel (e.g., tritium) decays, the high energy particle hits the bead resulting in the emission of light that is detected by a detector, such as photomultiplier tube or CCD camera. […]
experimental endpoint: IC50 (µM)

Sample records with IC50:
# compound, result number
data = [
    ("N#Cc1c(Oc2cc(F)cc(F)c2)ccc2c1C(O)(C(F)(F)F)CS2(=O)=O (centres unmarked) [Compound 102]", 4.6),
    ("N#CN=S1(=O)c2ccc(Oc3cc(F)cc(F)c3)c(Cl)c2[C@@H](O)C1(F)F (some centres unmarked) [Compound 66]", 0.17),
    ("N#Cc1cc(F)cc(Oc2ccc3c(c2Br)[C@@H](O)C(F)(F)S3(=O)=O)c1 [Compound 1]", 0.007),
    ("N#Cc1c(Oc2cc(F)cc(Cl)c2)ccc2c1[C@@H](O)CS2(=O)=O [Compound 2]", 0.047),
    ("N=S1(=O)c2ccc(Oc3cc(F)cc(F)c3)c(Br)c2C(O)C1(F)F (centres unmarked) [Compound 31]", 4.14),
]

(1) O=S1(=O)c2ccc(OC3CCOCC3)c(C(F)F)c2C(O)C1(F)F (centres unmarked) [Compound 54]
(2) N#Cc1cc(F)cc(Oc2ccc3c(c2C(F)F)C(=N)C(F)S3(=O)=O)c1 (centres unmarked) [Compound 27]
Looking at 1 and 2 , which one comes out lower in IC50 terms? In your reply, give the label of the chosen option. 1
(1: 1.92 µM, 2: 5.84 µM)

====

target: HIF-2α HIS TAG-PASB Domain (Homo sapiens); assay: biochemical; assay type: binding; settings: displacement of Compound 120 probe; mean; read-out: Mean SPA IC50
pIC50: −log10 of the molar value.
experimental endpoint: pIC50

# compound, tested on, pIC50
rows = [
    ("O=S1(=O)CCc2c1ccc(Oc1cc(F)cc(Cl)c1)c2Br", "HIF-2α HIS TAG-PASB Domain (Homo sapiens)", 5.36),
    ("N#Cc1cc(F)cc(Oc2ccc3c(c2C#N)C(O)(C(F)(F)F)CS3(=O)=O)c1 (stereo not shown)", "HIF-2α HIS TAG-PASB Domain (Homo sapiens)", 5.20),
]

FYI, the data here is from patent US9884843B2.
